# studyTarget: Estrogen receptor beta (Homo sapiens) (UniProt Q92731)
# Sequence (Q92731 whole entry, looked up): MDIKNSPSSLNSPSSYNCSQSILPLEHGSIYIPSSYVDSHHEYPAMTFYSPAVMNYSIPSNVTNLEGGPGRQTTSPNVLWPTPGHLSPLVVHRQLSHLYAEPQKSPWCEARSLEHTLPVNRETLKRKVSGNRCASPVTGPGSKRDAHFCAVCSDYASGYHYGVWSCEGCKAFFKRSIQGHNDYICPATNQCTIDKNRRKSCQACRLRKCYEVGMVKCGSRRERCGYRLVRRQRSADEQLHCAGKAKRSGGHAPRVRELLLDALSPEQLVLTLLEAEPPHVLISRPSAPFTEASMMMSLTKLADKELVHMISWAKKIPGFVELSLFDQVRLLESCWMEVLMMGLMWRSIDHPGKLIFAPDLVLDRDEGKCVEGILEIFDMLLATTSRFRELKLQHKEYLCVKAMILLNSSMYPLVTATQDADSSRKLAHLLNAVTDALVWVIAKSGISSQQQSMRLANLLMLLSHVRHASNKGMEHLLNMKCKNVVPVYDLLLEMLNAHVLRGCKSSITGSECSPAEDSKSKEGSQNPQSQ
# testSummary: qHTS assay to identify small molecule antagonists of the estrogen receptor beta (ER-beta) signaling pathway (AID 1259378)
# setupConditions: ER-beta-UAS-bla HEK293T, beta-lactamase FRET ratio, 16 h; series mostly up to 92.4 µM
Records with an inconclusive call do not appear. Calls of active or inactive are those of the source. Calls come from the whole dose curve; as a rule, active = well fitted inhibition curve with a large enough effect in the signal ratio in the repeat runs (not every such curve was filed as active); inconclusive = weak or mixed curves, or effect the other way; inactive = no such curve, though single readings can be large or run the other way; the % refers to the signal ratio.
Lab note: assign the record to one of class 1 for active, class 0 for inactive

QUERY: What outcome does the record of this test show for CCCCCCCCCCCCCCCCOS(=O)(=O)O ?
RESULT: class 0

QUERY: What outcome does the record of this test show for CC(C)(COC(=O)c1ccccc1)COC(=O)c1ccccc1 ?
RESULT: class 0

QUERY: What outcome does the record of this test show for O=[N+]([O-])c1ccc2[nH]ncc2c1 ?
RESULT: class 0

QUERY: What outcome does the record of this test show for C=CCOc1ccccc1OCC(O)CNC(C)C (stereo not given) ?
RESULT: class 0

QUERY: What outcome does the record of this test show for CC1=CCCC(C)(C)C12CCC(C)O2 (stereo not given) ?
RESULT: class 0

QUERY: What outcome does the record of this test show for Brc1c2ccccc2cc2ccccc12 ?
RESULT: class 0

QUERY: What outcome does the record of this test show for Cc1cc(C(=O)O)ccc1[N+](=O)[O-] ?
RESULT: class 0

QUERY: What outcome does the record of this test show for CCCCCCCCO[C@@H]1O[C@H](CO)[C@@H](O)[C@H](O)[C@H]1O ?
RESULT: class 0

QUERY: What outcome does the record of this test show for CCC(C)(C)CC ?
RESULT: class 0

QUERY: What outcome does the record of this test show for C=CCOC(=O)CCC1CCCCC1 ?
RESULT: class 0

QUERY: What outcome does the record of this test show for OCCNCc1ccccc1 ?
RESULT: class 0

QUERY: What outcome does the record of this test show for O=[N+]([O-])c1ccc(NCCO)c(OCCO)c1 ?
RESULT: class 0

QUERY: What outcome does the record of this test show for O=C1OC(CN2CCOCC2)CN1/N=C/c1ccc([N+](=O)[O-])o1 (stereo not given) ?
RESULT: class 0

QUERY: What outcome does the record of this test show for Nc1cccc([N+](=O)[O-])c1 ?
RESULT: class 0

QUERY: What outcome does the record of this test show for NCC(=O)CCC(=O)O ?
RESULT: class 0

QUERY: What outcome does the record of this test show for C=C(C)C(=O)OCC ?
RESULT: class 0

QUERY: What outcome does the record of this test show for Cc1ncc(CO)c(C=O)c1O ?
RESULT: class 0

QUERY: What outcome does the record of this test show for CC1OC(=O)C(C)OC1=O (stereo not given) ?
RESULT: class 0

QUERY: What outcome does the record of this test show for CCC(CC)Nc1ccc(C)c(C)c1 ?
RESULT: class 0

QUERY: What outcome does the record of this test show for NCCCN1CCOCC1 ?
RESULT: class 0

QUERY: What outcome does the record of this test show for CCCCCCCCCCCCCCCCCCOS(=O)(=O)O ?
RESULT: class 1

QUERY: What outcome does the record of this test show for Cc1c(N)cccc1[N+](=O)[O-] ?
RESULT: class 0

QUERY: What outcome does the record of this test show for CC(C)(C)Cl ?
RESULT: class 0

QUERY: What outcome does the record of this test show for COc1ccc(C(=O)N2CCN(CC(=O)N3CCOCC3)CC2)cc1 ?
RESULT: class 0

QUERY: What outcome does the record of this test show for COc1ccc(C)cc1[N+](=O)[O-] ?
RESULT: class 0

QUERY: What outcome does the record of this test show for CCOC(=O)Cc1cccc2ccccc12 ?
RESULT: class 0

QUERY: What outcome does the record of this test show for COC(=O)C1=C(C)NC(COC(N)=O)=C(C(=O)OC(C)C)C1c1cccc(Cl)c1Cl (stereo not given) ?
RESULT: class 0

QUERY: What outcome does the record of this test show for Cc1ccccc1S(=O)(=O)O ?
RESULT: class 0

QUERY: What outcome does the record of this test show for OC(CN1CCC(Cc2ccc(F)cc2)CC1)c1ccc(Cl)cc1 (stereo not given) ?
RESULT: class 0

QUERY: What outcome does the record of this test show for CC(CC=O)c1ccccc1 (stereo not given) ?
RESULT: class 0
